- Assay name: Solubility measurement of saturated solutions by HPLC at room temperature (0 h and 24 h)
- Format: physicochemical
- Stated conditions: buffered water without excipient (saturated solution), pH 4, aqueous buffer, thermodynamic from solid, CBS 30 mM pH 4.0; no excipient; 24 h; pH exp 4.2
Attribute measured: solubility at 24 h (µg/mL)
Just the number please, in µg/mL, no unit attached.

Requested field: solubility at 24 h. Item: `COc1cc(N2CCNCC2)ccc1Nc1ncc2c(n1)-n1ccc(C(=O)Nc3c(C)cccc3C)c1CC2`
120

----------
- Assay name: Solubility measurement of saturated solutions by HPLC at room temperature (0 h and 24 h)
- Format: physicochemical
- Stated conditions: buffered water with excipient (saturated solution), pH 4, aqueous with cosolvent or surfactant or cyclodextrin, thermodynamic from solid, CBS 30 mM pH 4.0; PG 100 mg/mL; 24 h; pH exp 4.4
- Method: The vial contents are prepared starting with 2.5 mg of the compound of formula (I). The primary excipient is added followed by any further excipient and then the buffered water to a total volume of 500 μL. All components are mixed in a vortex mixer for ca. 5 minutes. […] The solubility in vial 1 is measured immediately as described below. To measure solubility 400 μl of the suspension are taken and placed in a centrifugation device above a 0.2 μm filter. […] The pH of the solution is measured. […]
Attribute measured: solubility at 24 h (µg/mL)
Just the number please, in µg/mL, no unit attached.

Requested field: solubility at 24 h. Item: COc1cc(N2CCNCC2)ccc1Nc1ncc2c(n1)-n1ccc(C(=O)Nc3c(C)cccc3C)c1CC2 [compound of formula (I)]
150

----------
- Assay name: Solubility measurement of saturated solutions by HPLC at room temperature (0 h and 24 h)
- Format: physicochemical
- Stated conditions: buffered water with excipients, pH 4, aqueous with cosolvent or surfactant or cyclodextrin, thermodynamic from solid, CBS 30 mM pH 4.0; SBE-beta-CD 56 mg/mL + PEG 400 22 mg/mL; 24 h; pH exp 4.3
Attribute measured: solubility at 24 h (µg/mL)
Just the number please, in µg/mL, no unit attached.

Requested field: solubility at 24 h. Item: COc1cc(N2CCNCC2)ccc1Nc1ncc2c(n1)-n1ccc(C(=O)Nc3c(C)cccc3C)c1CC2 [compound of formula (I)]
4060

----------
- Assay name: Solubility measurement of saturated solutions by HPLC at room temperature (0 h and 24 h)
- Format: physicochemical
- Stated conditions: buffered water with excipients, pH 4, aqueous with cosolvent or surfactant or cyclodextrin, thermodynamic from solid, LBS (lactate) 30 mM pH 4.0, NaCl 3 mg/mL; SBE-beta-CD 40 mg/mL; 24 h; pH exp 4.3
- Procedure: The vial contents are prepared starting with 2.5 mg of the compound of formula (I). The primary excipient is added followed by any further excipient and then the buffered water to a total volume of 500 μL. All components are mixed in a vortex mixer for ca. 5 minutes. […] The solubility in vial 1 is measured immediately as described below. To measure solubility 400 μl of the suspension are taken and placed in a centrifugation device above a 0.2 μm filter. […] The pH of the solution is measured. […]
Attribute measured: solubility at 24 h (µg/mL)
Just the number please, in µg/mL, no unit attached.

Requested field: solubility at 24 h. Item: COc1cc(N2CCNCC2)ccc1Nc1ncc2c(n1)-n1ccc(C(=O)Nc3c(C)cccc3C)c1CC2 [compound of formula (I)]
3980

Numbers sourced from patent US20250049926A1.
